assay.explanation: Cytotoxicity against human MSC assessed as cell viability at 1 uM treated for 6 days measured on day 7 by alamar blue assay (reference value: 96 to 101%)
test.context: MSC cells, read-out: Activity
reported.endpoint: viability at 144 h, 1 µM (%)
Express your answer in %, writing the number without its unit.

Consider the reported viability at 144 h, 1 µM for these compounds:
>  <compound>
O=c1cc(-c2ccc(O)c(O)c2)oc2cc(O)cc(O)c12 [LUTEOLIN]

>  <viability at 144 h, 1 µM [%]>
97

$$$$
>  <compound>
COc1ccc([C@@H]2CC(=O)c3c(O)cc(O)cc3O2)cc1O [HESPERETIN]

>  <viability at 144 h, 1 µM [%]>
97

$$$$
>  <compound>
O=C1C[C@@H](c2ccc(O)c(O)c2)Oc2cc(O)cc(O)c21 [ERIODICTYOL]

>  <viability at 144 h, 1 µM [%]>
101

$$$$
>  <compound>
O=C(CCc1ccc(O)cc1)c1c(O)cc(O)cc1O [PHLORETIN]

>  <viability at 144 h, 1 µM [%]>
97

$$$$

Sure, the documented viability at 144 h, 1 µM for O=c1c(O)c(-c2ccc(O)c(O)c2)oc2cc(O)cc(O)c12 [QUERCETIN] is 103

Sure, the documented viability at 144 h, 1 µM for O=C(O[C@@H]1Cc2c(O)cc(O)cc2O[C@@H]1c1cc(O)c(O)c(O)c1)c1cc(O)c(O)c(O)c1 [EPIGALOCATECHIN GALLATE] is 101

====

System: MSC
assay.explanation: Induction of osteogenic differentiation in human MSC assessed as increase in ALP activity at 1 uM using p-NPP as substrate after 9 days by colorimetric method relative to control
Type: functional
The source made the active and inactive calls. No cut-off for these calls is given here.

>  <compound>
O=C1C[C@@H](c2ccc(O)c(O)c2)Oc2cc(O)cc(O)c21

>  <Activity>
inactive

$$$$
>  <compound>
O=C1c2c(O)cc(O)cc2O[C@H](c2ccc(O)c(O)c2)[C@H]1O [(+)-TAXIFOLIN]

>  <Activity>
inactive

$$$$
>  <compound>
O=C1C[C@@H](c2ccccc2)Oc2cc(O)cc(O)c21

>  <Activity>
inactive

$$$$

====

The entries below are paired with their reported viability at 1 day, 10 µM.
assay.explanation: Cytotoxicity against human MSC assessed as cell viability at 10 uM measured on day 1 by alamar blue assay (reference value: 97 to 101%)
test.context: MSC cells, read-out: Activity
Express your answer in %, writing the number without its unit.

Consider the reported viability at 1 day, 10 µM for these compounds:
>  <smiles>
O=c1c(O)c(-c2ccc(O)c(O)c2)oc2cc(O)ccc12

>  <units.text>
%

>  <viability at 1 day, 10 µM>
86

$$$$
>  <smiles>
COc1cc(-c2oc3cc(O)cc(O)c3c(=O)c2O)ccc1O

>  <units.text>
%

>  <viability at 1 day, 10 µM>
108

$$$$
>  <smiles>
O=c1c(O)c(-c2ccc(O)cc2)oc2cc(O)cc(O)c12

>  <units.text>
%

>  <viability at 1 day, 10 µM>
104

$$$$
>  <smiles>
COc1ccc(-c2oc3cc(O)cc(O)c3c(=O)c2O)cc1O

>  <units.text>
%

>  <viability at 1 day, 10 µM>
102

$$$$

// switching to the query compound
Sure, the documented viability at 1 day, 10 µM for Oc1cc(O)c2c(c1)O[C@H](c1ccc(O)c(O)c1)[C@@H](O)C2 is 104

====

assay.explanation: Cytotoxicity against human MSC assessed as cell viability at 1 uM treated for 3 days measured on day 4 by alamar blue assay (reference value: 97 to 100%)
test.context: MSC cells, read-out: Activity
reported.endpoint: viability at 72 h, 1 µM (%)
Express your answer in %, writing the number without its unit.

Sure, the documented viability at 72 h, 1 µM for O=c1c(O)c(-c2ccc(O)cc2)oc2cc(O)cc(O)c12 is 97

Sure, the documented viability at 72 h, 1 µM for O=c1cc(-c2ccccc2)oc2ccccc12 is 93

Sure, the documented viability at 72 h, 1 µM for O=C1C[C@@H](c2ccc(O)cc2)Oc2cc(O)cc(O)c21 is 101

Sure, the documented viability at 72 h, 1 µM for O=c1c(O)c(-c2cc(O)c(O)c(O)c2)oc2cc(O)cc(O)c12 is 97

Sure, the documented viability at 72 h, 1 µM for O=c1c(O)c(-c2ccccc2)oc2cc(O)cc(O)c12 is 94

Sure, the documented viability at 72 h, 1 µM for Oc1ccc(/C=C/c2cc(O)cc(O)c2)cc1 is 100

Sure, the documented viability at 72 h, 1 µM for O=C1c2c(O)cc(O)cc2O[C@H](c2ccc(O)c(O)c2)[C@H]1O [(+)-TAXIFOLIN] is 92

Sure, the documented viability at 72 h, 1 µM for COc1ccc([C@@H]2CC(=O)c3c(O)cc(O)cc3O2)cc1O is 98

====

assay.explanation: Cytotoxicity against human MSC assessed as cell viability at 5 uM treated for 3 days measured on day 4 by alamar blue assay (reference value: 97 to 100%)
test.context: MSC cells, read-out: Activity
reported.endpoint: viability at 72 h, 5 µM (%)
Express your answer in %, writing the number without its unit.

Consider the reported viability at 72 h, 5 µM for these compounds:
>  <compound>
COc1ccc([C@@H]2CC(=O)c3c(O)cc(O)cc3O2)cc1O [HESPERETIN]

>  <units.text>
%

>  <viability at 72 h, 5 µM>
102

$$$$
>  <compound>
O=C1C[C@@H](c2ccc(O)cc2)Oc2cc(O)cc(O)c21 [NARINGENIN]

>  <units.text>
%

>  <viability at 72 h, 5 µM>
104

$$$$
>  <compound>
COc1ccc(-c2oc3cc(O)cc(O)c3c(=O)c2O)cc1O [TAMARIXETIN]

>  <units.text>
%

>  <viability at 72 h, 5 µM>
97

$$$$
>  <compound>
O=c1c(O)c(-c2ccc(O)c(O)c2)oc2cc(O)cc(O)c12 [QUERCETIN]

>  <units.text>
%

>  <viability at 72 h, 5 µM>
100

$$$$
>  <compound>
O=C(O[C@@H]1Cc2c(O)cc(O)cc2O[C@@H]1c1cc(O)c(O)c(O)c1)c1cc(O)c(O)c(O)c1 [EPIGALOCATECHIN GALLATE]

>  <units.text>
%

>  <viability at 72 h, 5 µM>
91

$$$$

Sure, the documented viability at 72 h, 5 µM for O=C1c2c(O)cc(O)cc2O[C@H](c2ccc(O)c(O)c2)[C@H]1O [(+)-TAXIFOLIN] is 92

Sure, the documented viability at 72 h, 5 µM for O=c1cc(-c2ccccc2)oc2ccccc12 [FLAVONE] is 93

Sure, the documented viability at 72 h, 5 µM for O=c1c(O)c(-c2ccc(O)cc2)oc2cc(O)cc(O)c12 [KAEMPFEROL] is 98

Sure, the documented viability at 72 h, 5 µM for O=c1c(O)c(-c2cc(O)c(O)c(O)c2)oc2cc(O)cc(O)c12 [MYRICETIN] is 97

Sure, the documented viability at 72 h, 5 µM for O=C1C[C@@H](c2ccc(O)c(O)c2)Oc2cc(O)cc(O)c21 [ERIODICTYOL] is 102

Sure, the documented viability at 72 h, 5 µM for O=c1cc(-c2ccc(O)c(O)c2)oc2cc(O)cc(O)c12 [LUTEOLIN] is 96

====

The entries below are paired with their reported viability at 1 day, 5 µM.
assay.explanation: Cytotoxicity against human MSC assessed as cell viability at 5 uM measured on day 1 by alamar blue assay (reference value: 97 to 101%)
test.context: MSC cells, read-out: Activity
Express your answer in %, writing the number without its unit.

Sure, the documented viability at 1 day, 5 µM for COc1ccc([C@@H]2CC(=O)c3c(O)cc(O)cc3O2)cc1O is 95

Sure, the documented viability at 1 day, 5 µM for Oc1cc(O)c2c(c1)O[C@H](c1ccc(O)c(O)c1)[C@@H](O)C2 is 104

Sure, the documented viability at 1 day, 5 µM for O=c1c(O)c(-c2cc(O)c(O)c(O)c2)oc2cc(O)cc(O)c12 is 94

Sure, the documented viability at 1 day, 5 µM for O=C1c2c(O)cc(O)cc2O[C@H](c2ccc(O)c(O)c2)[C@H]1O [(+)-TAXIFOLIN] is 101

Sure, the documented viability at 1 day, 5 µM for O=C1C[C@@H](c2ccc(O)c(O)c2)Oc2cc(O)cc(O)c21 is 98

Sure, the documented viability at 1 day, 5 µM for O=c1c(O)c(-c2ccccc2)oc2cc(O)cc(O)c12 is 105

Sure, the documented viability at 1 day, 5 µM for O=c1c(O)c(-c2ccc(O)c(O)c2)oc2cc(O)ccc12 is 98

Sure, the documented viability at 1 day, 5 µM for COc1cc(-c2oc3cc(O)cc(O)c3c(=O)c2O)ccc1O is 107

Sure, the documented viability at 1 day, 5 µM for O=C(CCc1ccc(O)cc1)c1c(O)cc(O)cc1O is 105

// data source = ChEMBL document CHEMBL3739259
